System: EV-A71
Experiment: Plaque-assay antiviral validation in NSC-34 cells
Assay type: cell-based, human enterovirus A71
Conditions: Enterovirus A, EVA71, EV-A71 MOI 1, plaque assay
Quick list: pEC50 per entry.
Hey, just a heads up that pEC50 is the negative log base 10 of the concentration in molar.

The cases that follow already have their pEC50 on record.
# compound, pEC50
rows = [
    ("COC(=O)C1C(c2ccccc2)C2(c3ccc(Br)cc3)C(=O)C1(O)c1c(OC)cc(OC)cc1N2C (stereo not shown) [Compound 15]", 5.28),
    ("COC(=O)C1C(c2ccccc2)C2(c3ccc(Br)cc3)C(O)C1(O)c1c(OC)cc(OC)cc1N2C (stereo not shown) [Compound 16]", 4.35),
    ("COc1ccc(C23Oc4cc(OC)cc(OC)c4C(O)(C(c4c(F)c(F)c(F)c(F)c4F)C2c2ccccc2)C3O)cc1 (stereo not shown) [Compound 13]", 5.45),
]

Now look at this one.
pEC50 reading for COc1ccc(C23Oc4cc(OC)cc(OC)c4C(O)(C2=O)C(c2ccccc2)C3c2ccccc2)cc1 (stereo not shown) [Compound 14] : 4.72

----------
Test: in vitro
Details: mouse
measuredAttribute: viability at 12 h, 10 µM (%)
The response must be a number in % with no trailing unit.

# compound, viability at 12 h, 10 µM (%)
measured = [
    ("COC(=O)C1C(c2ccccc2)C2(c3ccc(Br)cc3)C(O)C1(O)c1c(OC)cc(OC)cc1N2C (stereo not drawn)", 81),
    ("COC(=O)C1C(c2ccccc2)C2(c3ccc(Br)cc3)C(=O)C1(O)c1c(OC)cc(OC)cc1N2C (stereo not drawn)", 91),
]

Shift focus to the following entry.
viability at 12 h, 10 µM reading for COC(=O)C1C(c2ccccc2)C2(c3ccc(OC)cc3)Oc3cc(OC)cc(OC)c3C1(O)C2O (stereo not drawn) : 108

----------
System: CV-A16
Assay: Pan-enterovirus plaque assay in SH-SY5Y cells, CV-A16
Assay type: cell-based, Coxsackievirus A16
Conditions: Enterovirus A, CVA16; CV-A16 in SH-SY5Y cells
measuredAttribute: EC50 (nM)
Number in nM, nothing else.

Field EC50 (entry COc1ccc(C23Oc4cc(OC)cc(OC)c4C(O)(C(c4c(F)c(F)c(F)c(F)c4F)C2c2ccccc2)C3O)cc1 (stereo not shown) ) reads 800

----------
Assay: alamarBlue cytotoxicity dose response, HBMECs
Assay type: cell-based
Conditions: human, primary human brain microvascular endothelial cells (HBMECs)
measuredAttribute: CC50 (µM)
Use µM as the unit, but write only the number.

GET /value?item= COc1ccc(C23Oc4cc(OC)cc(OC)c4C(O)(C(c4c(F)c(F)c(F)c(F)c4F)C2c2ccccc2)C3O)cc1 (stereo not shown) [Compound 13] &field=CC50 returns 89.4
